test system: NCI-H226; assay: NCI tumour cell line growth inhibition, 48 h
The source made the active and inactive calls. Rule as the data show it: active = GI50 up to about 1.1 µM and inactive = higher.
Labels: active, inactive

- compound: "COc1ccc(/C=C/c2cc(OC)c(OC)c(OC)c2)cc1OC"
  discreteLabel: "inactive"
- compound: "CCCN(CCC)C(=O)c1c([N+](=O)[O-])cc(C(F)(F)F)cc1[N+](=O)[O-]"
  discreteLabel: "inactive"
- compound: "Cc1cc([N+](=O)[O-])c(C)c(Br)c1C"
  discreteLabel: "inactive"
- compound: "COC(=O)/C=C/c1c(CC=C(C)C)ncn1C"
  discreteLabel: "inactive"
- compound: "O=C1CSC(=S)N1c1ccco1"
  discreteLabel: "inactive"
- compound: "CCC(C)OC(=O)C1C2CCC(O2)C1C(=O)O (stereo not given)"
  discreteLabel: "inactive"
- compound: "COC(=O)N/N=C(\\C(=O)Nc1cccc([N+](=O)[O-])c1)c1nc2ccc([N+](=O)[O-])cc2nc1O"
  discreteLabel: "inactive"
- compound: "O=c1oc2nc(-c3ccccc3)cc(C(F)(F)F)c2n1Cc1ccccc1"
  discreteLabel: "inactive"
- compound: "CN(C)c1ccc(/C=c2/c3ccccc3n3c2cc(/C=C/c2ccccc2)[n+]3C)cc1"
  discreteLabel: "active"
- compound: "COC(CO[Si](C)(C)N[Si](C)(C)OCC(OC)c1ccccc1)c1ccccc1 (stereo not given)"
  discreteLabel: "inactive"
- compound: "CCOC(=O)c1ccc(C)c(/N=N/N(C)C)c1"
  discreteLabel: "inactive"
- compound: "CCOC(=O)NC(Nc1ccc(S(=O)(=O)Nc2nc(C)cc(C)n2)cc1)(C(=O)OCC)C(F)(F)F (stereo not given)"
  discreteLabel: "inactive"
- compound: "CCN1CCCC(NCc2c3ccccc3c(CNC3CCCN(CC)C3)c3ccccc23)C1 (stereo not given)"
  discreteLabel: "inactive"
- compound: "COc1cc2c(c(OC)c1OC)C(=O)[C@H]1OC(=O)N[C@@H]21"
  discreteLabel: "inactive"
- compound: "CCOC(=O)c1nc2cc(C(F)(F)F)ccc2nc1Oc1ccc(C#N)cc1"
  discreteLabel: "inactive"
- compound: "COc1ccccc1NC(=S)Nc1cc(C)ccn1"
  discreteLabel: "inactive"
- compound: "CC(O)C1(O)C(O)CC(OC2c3cc4c(c(O)c3[C@@H]3C[C@@]2(C)OC32C=c3cc[nH]c3=N2)C(=O)c2cccc(O)c2C4=O)OC1C (stereo not given in full)"
  discreteLabel: "active"
- compound: "CC1=C(OC2OC(CO)C(O)C(O)C2O)C(=O)C[C@H]2C1=CC[C@@H]1[C@@]2(C)C(=O)C[C@]2(C)[C@@H]([C@@](C)(O)C(=O)CCC(C)(C)O)[C@H](O)C[C@@]12C (stereo not given in full)"
  discreteLabel: "inactive"
- compound: "CCN(CC)CCn1nc(N)c2nc3cc(Cl)ccc3nc21"
  discreteLabel: "inactive"
- compound: "CC1(C)C(=O)C2(OS(=O)(=O)C(F)(F)F)CCC1C2 (stereo not given)"
  discreteLabel: "inactive"

* * *

test system: MDA-MB-231; test: NCI tumour cell line growth inhibition, 48 h
The source made the active and inactive calls. No stated cut-off is given here; in the data, active = GI50 up to about 1.1 µM and inactive = higher.
Labels: Y (active), N (inactive)

- compound: "O=[N+]([O-])c1ccc2nc3ccccc3cc2c1"
  discreteLabel: "N"
- compound: "O=C1CCC2(CC1CCSc1ccccc1)OCCO2 (stereo not drawn)"
  discreteLabel: "N"
- compound: "Nc1ccc(Nc2cc(O)nc(O)n2)cc1"
  discreteLabel: "N"
- compound: "Cn1c2ccccc2c2c(=S)c3ccccc3ccc21"
  discreteLabel: "N"
- compound: "COc1ccccc1NC(=S)N/N=C(/C)c1ccccn1"
  discreteLabel: "Y"
- compound: "Cc1ccc(NC(Nc2ccc(C)cc2C)=C(C(Cl)=C(Cl)Cl)[N+](=O)[O-])c(C)c1"
  discreteLabel: "N"
- compound: "COc1ccc(C(=O)/C=C/c2ccc(OCC(=N)N)cc2)cc1OC"
  discreteLabel: "N"
- compound: "O=S(=O)(/C=C/C=C/[S+]([O-])c1ccccc1)c1ccccc1 (stereo not drawn)"
  discreteLabel: "N"
- compound: "CCN(CC)CCn1nc(N)c2nc3cc(Cl)ccc3nc21"
  discreteLabel: "N"
- compound: "Cc1ccc(C)c(N2C(=O)C(=O)c3c(C)ccc(C)c32)c1"
  discreteLabel: "N"
- compound: "NC(=O)c1ncn2c(=O)n(CCl)nnc12"
  discreteLabel: "N"
- compound: "CCOC(=O)Cn1c(=O)c(C)cn(COCCO)c1=O"
  discreteLabel: "N"
- compound: "COc1ccc(CN/C=N/C(C#N)=C(\\N)C#N)cc1OC"
  discreteLabel: "N"
- compound: "C=C1CC(C)(c2cccc(Nc3nc4ccccc4c4occc34)c2)OC1=O (stereo not drawn)"
  discreteLabel: "N"
- compound: "COc1cc2c(cc1OCCCC(=O)Nc1cc(C(=O)NCCCN(C)C)n(C)n1)N=CC1CCCN1C2=O (stereo not drawn)"
  discreteLabel: "N"
- compound: "O=P1(c2ccccc2)c2ccccc2-c2ccccc21"
  discreteLabel: "N"
- compound: "C1=C[C@]2(CCC13OCCO3)COc1ccccc12"
  discreteLabel: "N"
- compound: "COc1ccc(-c2csc(Cc3nc4c(Br)cc(Br)cc4c(=O)n3-c3ccc(OC)cc3)n2)cc1"
  discreteLabel: "N"
- compound: "CC(=O)N1N=C(c2ccc3ccccc3c2O)CC1C(=O)c1ccco1 (stereo not drawn)"
  discreteLabel: "N"
- compound: "COc1cc(C2SCC(=O)N2c2ccc(Oc3ccc(Cl)cc3)c(Cl)c2)cc(OC)c1OC (stereo not drawn)"
  discreteLabel: "N"
- compound: "N#CC1=C(S)N(C2OC(CO)C(O)C(O)C2O)C(c2ccccc2)=CC1c1ccco1 (stereo not drawn)"
  discreteLabel: "N"
- compound: "CCOC(=O)C1C(c2ccccc2)C2(C#N)C(=N)OC1(C)C2(C#N)C#N (stereo not drawn)"
  discreteLabel: "N"
- compound: "Cc1ccc(C(=O)N2CCN(C(=O)c3ccc(C)cc3)c3ccccc32)cc1"
  discreteLabel: "N"
